This collection of values is drawn from patent US20080242661A1.

Each entry below lists one item and its recorded IC50 value.
- Measured On: UniProt P54750
Readout Kind: IC50

>>> result("CCCc1nn(C)c2c(=O)[nH]c(NCc3ccc4c(ccn4C)c3)nc12 [Example 68]")
"101 to 500 nM"
>>> result("CCCc1nn(C)c2c(=O)[nH]c(N(C)Cc3csc(-c4ccc(C(F)(F)F)cc4)n3)nc12 [Example 39]")
"101 to 500 nM"
>>> result("CCCc1nn(C)c2c(=O)[nH]c(N(C)Cc3cc4cccnc4s3)nc12 [Example 36]")
"101 to 500 nM"
>>> result("CCCc1nn(C)c2c(=O)[nH]c(NCc3cccc(N4CCOCC4)c3)nc12 [Example 56]")
"101 to 500 nM"
>>> result("CCCc1nn(C)c2c(=O)[nH]c(N(C)Cc3ccccc3)nc12 [Example 33]")
"101 to 500 nM"
>>> result("CCCc1nn(C)c2c(=O)[nH]c(NCc3cc(C(F)(F)F)cc(C(F)(F)F)c3)nc12 [Example 31]")
"> 500 nM"
>>> result("CCCc1nn(C)c2c(=O)[nH]c(NCc3cc(-c4ccccc4)nn3C)nc12 [Example 66]")
"< 100 nM"
>>> result("CCCc1nn(C)c2c(=O)[nH]c(N(Cc3cccc(-n4cccc4)c3)CC(C)C)nc12 [Example 101]")
"< 100 nM"
